Below: a set of entries, each annotated with reported pIC50.
Molecular target: CYP3A4 (Homo sapiens, UniProt P08684)
Sequence (P08684 whole entry): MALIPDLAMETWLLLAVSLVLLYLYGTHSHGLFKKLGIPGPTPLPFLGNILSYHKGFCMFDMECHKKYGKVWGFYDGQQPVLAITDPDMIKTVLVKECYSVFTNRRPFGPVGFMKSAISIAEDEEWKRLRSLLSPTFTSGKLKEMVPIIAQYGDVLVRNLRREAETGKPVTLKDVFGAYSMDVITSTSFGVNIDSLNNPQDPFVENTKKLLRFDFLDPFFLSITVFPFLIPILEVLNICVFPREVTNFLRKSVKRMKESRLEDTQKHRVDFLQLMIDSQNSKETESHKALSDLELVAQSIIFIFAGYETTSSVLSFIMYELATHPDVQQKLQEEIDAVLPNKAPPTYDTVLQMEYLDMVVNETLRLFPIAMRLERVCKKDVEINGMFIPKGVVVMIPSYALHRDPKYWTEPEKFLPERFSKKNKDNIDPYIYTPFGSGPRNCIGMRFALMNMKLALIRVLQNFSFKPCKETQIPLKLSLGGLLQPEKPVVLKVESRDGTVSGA
Assay: CyP450 enzyme assay (P450-Glo)
Conditions: recombinant human CYP enzyme, 0.001–100 μmol/L
Description: The assay was carried out using P450-Glo Screening System (Promega). […] First, 12.5 μL of the 4X stock solution of test compounds or positive controls (appropriate for each enzyme) were added to the “treated” wells. For the “untreated” (the values from these wells represent total CYP activity) and “minus-P450 control” wells (the values from these wells represent the CYP-independent background luminescence of the assay), 12.5 μL of vehicle was added. […]
// pIC50 is dimensionless: -log10 of concentration (M)

The cases that follow already have their pIC50 on record.
>  <compound>
CCn1c2ccccc2c2cc(-n3nncc3-c3ccccc3)ccc21 [MBQ-167]

>  <pIC50>
6.55

$$$$
>  <compound>
CCn1c2ccccc2c2cc(-n3nncc3-c3cccc(OC)c3)ccc21 [MBQ-168]

>  <pIC50>
5.50

$$$$
>  <compound>
CCn1c2ccccc2c2cc(-n3nncc3-c3cccc(C)c3)ccc21 [MBQ-169]

>  <pIC50>
5.48

$$$$

// next entry
Exam item: Look up and state reported pIC50 for CCn1c2ccccc2c2cc(-n3nncc3-c3cccnc3)ccc21 [MBQ-171]
Marked response: 5.09

Values were extracted from paper PMC9970268.
